method: self-splicing fitness, log relative to wild type (ln ratio); higher = more splicing; Tetrahymena group I intron in knt gene, E. coli kanamycin selection, DiMSum; sequences stand for … in CUCUCU…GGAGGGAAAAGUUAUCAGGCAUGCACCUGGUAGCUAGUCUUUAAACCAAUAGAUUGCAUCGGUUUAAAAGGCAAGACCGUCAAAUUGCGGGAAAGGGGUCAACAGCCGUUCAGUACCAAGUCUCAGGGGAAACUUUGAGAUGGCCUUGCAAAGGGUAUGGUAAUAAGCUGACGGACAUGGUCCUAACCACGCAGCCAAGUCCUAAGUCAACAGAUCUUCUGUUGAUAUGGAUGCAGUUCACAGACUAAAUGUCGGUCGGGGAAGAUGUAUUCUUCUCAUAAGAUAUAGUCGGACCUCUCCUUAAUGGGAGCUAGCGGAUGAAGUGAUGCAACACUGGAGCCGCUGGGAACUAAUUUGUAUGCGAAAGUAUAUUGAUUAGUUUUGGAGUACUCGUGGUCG;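 also: selection with 25 µg/mL kanamycin versus none on LB agar overnight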
conditionParameters: 30 °C
Hi there, I'd appreciate the recorded self-splicing fitness (ln) for every entry that follows.
One number for each entry.

Before answering, review these 5 worked examples.
CGGCAGCAAUAUUACGAACU : -1.15
CCAGAGCAAUAUUACGAUGC : -3.48
CGGUAGCAAUAUUACGAAAU : -2.91
CAGUAGCAAUAUUACGAGUA : -2.34
CCUUAGCAAUAUUACGAGUU : -3.96

I need self-splicing fitness (ln) for every entry listed below, if you could help.
1. GAAAAGCAAUAUUACGACGU
2. CUAGAGCAAUAUUACGCCUA
3. UCCGAGCAAUAUUACGGUUG
4. GAAGAGCAAUAUUACGAUAA

Resp:
0.263
-2.2
-3.29
-3.7

I need self-splicing fitness (ln) for every entry listed below, if you could help.
1. CGUGAGCAAUAUUACGGUUA
2. UUCUAGCAAUAUUACGAUCA
3. AAAUAGCAAUAUUACGUGAU
4. GAUAAGCAAUAUUACGUACU
5. AACUAGCAAUAUUACGCGUG
6. CGUUAGCAAUAUUACGUACU
7. AGUCAGCAAUAUUACGUACG
8. CCCCAGCAAUAUUACGGGCG

Resp:
1: -3.15; 2: -1.69; 3: -2.26; 4: -0.466; 5: -1.53; 6: -0.583; 7: -0.473; 8: -3.69

----------
method: self-splicing fitness, log relative to wild type (ln ratio); higher = more splicing; Tetrahymena group I intron in knt gene, E. coli kanamycin selection, DiMSum; sequences stand for … in CUCUCU…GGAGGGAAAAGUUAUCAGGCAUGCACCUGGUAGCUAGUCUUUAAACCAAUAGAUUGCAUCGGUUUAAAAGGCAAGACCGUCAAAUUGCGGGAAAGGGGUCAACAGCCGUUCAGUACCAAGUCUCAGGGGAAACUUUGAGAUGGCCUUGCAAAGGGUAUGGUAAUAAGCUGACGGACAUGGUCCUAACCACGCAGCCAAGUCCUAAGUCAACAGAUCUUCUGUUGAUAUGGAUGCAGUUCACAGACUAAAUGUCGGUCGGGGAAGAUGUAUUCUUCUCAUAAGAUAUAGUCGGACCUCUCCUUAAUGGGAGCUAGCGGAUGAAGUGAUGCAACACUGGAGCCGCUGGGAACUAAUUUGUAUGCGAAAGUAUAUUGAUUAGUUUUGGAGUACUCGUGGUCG
conditionParameters: 37 °C
recordedMetric: self-splicing fitness (ln)
Give bare numbers.

Before answering, review these 3 worked examples.
GGUAAGCAAUAUUACGCAGA : -1.84
GUUCAGCAAUAUUACGUCCU : 0.279
UCUAAGCAAUAUUACGCUGG : -2.92

I need self-splicing fitness (ln) for every entry listed below, if you could help.
1. AUAAAGCAAUAUUACGUUAG
2. AUGGAGCAAUAUUACGGCGG

Resp:
1: -0.504; 2: -1.82
